These entries and their values trace back to patent US20260144882A1.

# STUDY TARGET: T1, human Nectin-4 extracellular antigen hNectin-4-His (human, UniProt Q96NY8 32-349)
# T1 construct: C-terminal 8xHis tag included
# T1 sequence: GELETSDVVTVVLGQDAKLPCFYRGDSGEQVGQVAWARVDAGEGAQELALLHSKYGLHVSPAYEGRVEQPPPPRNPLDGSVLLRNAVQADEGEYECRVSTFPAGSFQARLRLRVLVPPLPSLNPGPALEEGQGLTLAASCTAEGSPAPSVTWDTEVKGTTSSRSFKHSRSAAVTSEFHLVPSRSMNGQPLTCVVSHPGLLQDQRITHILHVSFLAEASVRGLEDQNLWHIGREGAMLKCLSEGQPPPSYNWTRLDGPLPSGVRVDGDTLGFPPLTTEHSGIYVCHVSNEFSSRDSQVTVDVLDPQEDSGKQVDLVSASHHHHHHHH
# ASSAY PROCEDURE: SPR, antibody on Protein A chip, 1:1 fit
ENDPOINT LABEL: Kd (nM)
Answers are plain numbers, in nM.

BINDER	UNIT OF MEASURE	Kd
antibody 1F3-2F3 (antibody, human IgG1, kappa, V domains shown) VH: EVQLVESGGGLVQPGGSLRLSCAASGFNFSDYGMSWVRQAPGKGLEWVSRIDWDGGNTRYADSVKGRFTISRDNSKNTLYLQMNSLRAEDTAVYYCARAELLAFDVYTASDYWGQGTLVTVSS VL: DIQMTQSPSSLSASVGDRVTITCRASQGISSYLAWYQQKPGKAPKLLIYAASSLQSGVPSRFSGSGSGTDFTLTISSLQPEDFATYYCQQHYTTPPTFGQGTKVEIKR	nM	0.37

--- query ---
## Input Name the recorded Kd of the item antibody 1F3-2B1 (antibody, human IgG1, kappa, V domains shown) VH: EVQLVESGGGLVQPGGSLRLSCAASGYNFDNYAMSWVRQAPGKGLEWVSGIKPDSATTYYADSVKGRFTISRDNSKNTLYLQMNSLRAEDTAVYYCARAELLAFDVYTASDYWGQGTLVTVSS VL: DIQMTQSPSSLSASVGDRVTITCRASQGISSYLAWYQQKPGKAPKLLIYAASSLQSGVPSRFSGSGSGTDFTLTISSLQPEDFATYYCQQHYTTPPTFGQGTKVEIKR in your answer.
## Output 0.241
